Known EC50, CreLuc reporter, 0.5% hP of a selection of binders
Molecular target: T1, human neuropeptide Y2 receptor (human, UniProt P49146 1-381)
T1 sequence (looked up): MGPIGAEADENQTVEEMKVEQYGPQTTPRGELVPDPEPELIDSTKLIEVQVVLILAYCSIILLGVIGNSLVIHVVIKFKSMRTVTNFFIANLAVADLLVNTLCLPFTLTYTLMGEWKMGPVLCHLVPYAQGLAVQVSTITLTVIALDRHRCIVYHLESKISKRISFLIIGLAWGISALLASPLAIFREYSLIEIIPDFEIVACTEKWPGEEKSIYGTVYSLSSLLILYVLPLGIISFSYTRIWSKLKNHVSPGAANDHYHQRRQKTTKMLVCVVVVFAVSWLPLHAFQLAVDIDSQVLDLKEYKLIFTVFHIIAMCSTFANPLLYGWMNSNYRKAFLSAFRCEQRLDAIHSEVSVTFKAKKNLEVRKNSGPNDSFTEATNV
Test: cell-based or functional assay
*1 amine or outer side, *2 acyl side, *3 side chain or, on linkers, in order; H or OH if unused. Where no end group is shown, it is not given here. Side-chain parts run from the residue outwards. [ ]: non-standard residue; d: D form. The star is where a group is joined. C20 diacid = O=C(O)CCCCCCCCCCCCCCCCCCC(=O)*; C18 diacid = O=C(O)CCCCCCCCCCCCCCCCC(=O)*; γGlu = O=C(O)[C@H](CCC(=O)[*:2])N[*:1]; εLys = N[C@@H](CCCCN[*:1])C(=O)[*:2]; Aib = CC(C)(N)C(=O)O
Measured Metric: EC50, CreLuc reporter, 0.5% hP (nM)

INSERT INTO assay_data (binder, unit_text, value_measured) VALUES
  ('Y[Aib]EGTFTSDYSI[Aib]LEKQAQ[Aib]EFVRHLINK([εLys-γGlu-γGlu-γGlu-γGlu-γGlu-γGlu-γGlu-C18 diacid])LTRQRY-NH2 [Compound 32]', 'nM', 17.1),
  ('YXEGTFTSDYSIXLDAQAQXAFVRHLINKXTRQRY (Aib at 2, 13, 20, 30; Lys29 epsilon-amino acylated with C18DA-gGlu-gGlu-gGlu-gGlu-gGlu-gGlu-eLys; C-terminal amide) [Compound 55]', 'nM', 18.3),
  ('YXEGTFTSDYSIXLEXQAQXAFVRHLINKXTRQRY (Aib at 2, 13, 16, 20, 30; Lys29 epsilon-amino acylated with C18DA-gGlu-gGlu-gGlu-gGlu-gGlu-gGlu-eLys; C-terminal amide) [Compound 5]', 'nM', 28.6),
  ('Y[Aib]EGTFTSDYSIALEKQAQ[Aib]AFVRHLINK([γGlu-γGlu-γGlu-γGlu-γGlu-γGlu-C20 diacid])[Aib]TRQRY-NH2 [Compound 29]', 'nM', 41.3),
  ('YXEGTFTSDYSIXLEKQAQXEFVRHLINKLTRQRY (Aib at 2, 13, 20; Lys29 epsilon-amino acylated with C18DA-gGlu-gGlu-gGlu-gGlu-gGlu-gGlu-eLys; C-terminal amide) [Compound 83]', 'nM', 16.8),
  ('YXEGTFTSDYSIXLEKQAQXAFVRHLIAKXTRQRY (Aib at 2, 13, 20, 30; Lys29 epsilon-amino acylated with C18DA-gGlu-gGlu-gGlu-gGlu-gGlu-gGlu-eLys; C-terminal amide) [Compound 68]', 'nM', 150),
  ('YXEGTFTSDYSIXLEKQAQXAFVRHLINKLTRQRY (Aib at 2, 13, 20; Lys29 epsilon-amino acylated with C18DA-gGlu-gGlu-gGlu-gGlu-gGlu-OEG; C-terminal amide) [Compound 7]', 'nM', 12.4);

The reported numbers originate from patent US20250382344A1.
